These entries and their values trace back to patent US20250026849A1.

studyTarget: T1, CD123 (Homo sapiens (Human), UniProt P26951 19-305, limits assumed)
T1 construct: The CD123 construct used in the ELISA is not described; also called CD123-Signal
T1 sequence: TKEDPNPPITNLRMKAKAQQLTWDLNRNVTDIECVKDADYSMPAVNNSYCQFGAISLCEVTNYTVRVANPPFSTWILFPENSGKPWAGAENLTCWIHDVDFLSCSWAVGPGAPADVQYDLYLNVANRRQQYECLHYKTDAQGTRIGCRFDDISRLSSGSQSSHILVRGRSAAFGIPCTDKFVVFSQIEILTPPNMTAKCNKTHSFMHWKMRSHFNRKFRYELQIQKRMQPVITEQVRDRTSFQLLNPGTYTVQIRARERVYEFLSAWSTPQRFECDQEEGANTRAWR
procedureText: ELISA
Parameters: unit not given here
Criterion: ELISA_avg strictly under 5. Met: fulfilled. Not met: not fulfilled.

In [3]: df
Out[3]:
                                     binder  assignedcategory
0  D domain of SEQ ID NO: 649 (designed binder) MGSWWEFKYRLDAICFRLAALGGSEAELASFEDEIAYFEEDLQGYKGKGNPEVEALDYEALAIWDELAAYRHN         fulfilled

Q: Report whether reported ELISA_avg is lower than 5 (strictly) for D domain of SEQ ID NO: 404 (designed binder) MGSWMEFVDRLDAIESRLWALGGSEAELAAFEKEIAAFESELQAYKGKGNPEVEWLRIEAAFIREELQAYRHN
Result: not fulfilled

Q: Report whether reported ELISA_avg is lower than 5 (strictly) for D domain of SEQ ID NO: 353 (designed binder) MGSWSEFWQRLEAIEDRLWALGGSEAELAAFEKEIAAFESELQAYKGKGNPEVEWLRENAAMIRDELQAYRHN
Result: fulfilled

Q: Report whether reported ELISA_avg is lower than 5 (strictly) for D domain of SEQ ID NO: 624 (designed binder) MGSWVEFDNRLFAIDERLWALGGSEAELAWFEEEIASFEDNLQKYKGKGNPEVEALQLEAFAIMEELDAYRHN
Result: fulfilled

Q: Report whether reported ELISA_avg is lower than 5 (strictly) for D domain of SEQ ID NO: 581 (designed binder) MGSWTEFDDRLFAIYWRLDALGGSEAELAWFEEVIAEFENDLQVYKGKGNPEVEALDDEAHAISIELEAYRHN
Result: not fulfilled
